Test system: platelet aggregation induced by adenosine diphosphate (ADP)
Method Notes: Inhibition of ADP-induced platelet aggregation in platelet rich plasma (Test Method B)
Assay type: cell-based, rabbit
Reported Conditions: rabbit PRP; ADP (2.5 μM); 37° C., pH 7.4; 2 min; listed as Ex. 76, 2 min; read-out: ID50, ADP
Assay Endpoint: IC50 (µM)
Express the result in µM but write the number alone.

Check the records and state IC50 for CC1NC(=O)NN=C1c1ccc2c(c1)CCC(=O)N2C (single isomer, unassigned; (+)) [Example 76] 1.2

---

System: platelet aggregation induced by adenosine diphosphate (ADP)
Method Notes: Inhibition of ADP-induced platelet aggregation in platelet rich plasma (Test Method B)
Type: cell-based, rabbit
Reported Conditions: Oryctolagus cuniculus, Platelet, 2 min, pH 7.4, rabbit PRP, ADP (2.5 μM), 37° C., read-out: ID50, ADP
Assay Endpoint: pIC50
Field pIC50 (float): negative decimal logarithm of the concentration in molar.

These solved cases illustrate the format of a correct answer.
| Compound | pIC50 |
| --- | --- |
| CC1NC(=O)N(C)N=C1c1ccc2c(c1)CCC(=O)N2C (stereo not shown) [Example 71] | 5.01 |
| CC1NC(=O)NN=C1c1ccc2c(c1)CCC(=O)N2C (stereo not shown) [Example 49-(3), 77-(2)] | 6.80 |
| CC1NC(=O)NN=C1c1ccc2c(c1)CCC(=O)N2 (stereo not shown) [67-(3)] | 7.27 |

Check the records and state pIC50 for CCCCN1C(=O)CCc2cc(C3=NNC(=O)NC3C)ccc21 (stereo not shown) [68-(3)] 6.85
